Test system: Pasteurella multocida
ASSAY_NOTES: in vitro tube dilution test (MIC)
Assay type: cell-based
APPLIED_CONDITIONS: tube dilution, read-out: MIC
MEASURED_QUANTITY: MIC (µg/mL)
Please respond with the number in µg/mL and leave the unit unwritten.

{"columns": ["COMPOUND", "STUDY_SYSTEM", "UNIT_DESCRIPTOR", "OBSERVED"],
 "data": [
  ["NC(=O)c1cn(CC2CC2)nc1[N+](=O)[O-] [Compound 90]", "Pasteurella multocida", "µg/mL", 25],
  ["CCOCCn1cc(C#N)c([N+](=O)[O-])n1 [Compound 84]", "Pasteurella multocida", "µg/mL", 25]
]}

Response field MIC (Pasteurella multocida) for item CSCCn1cc(C(N)=O)c([N+](=O)[O-])n1 [Compound 97] : 25
